Data origin, for the record: patent US9296741B2

assay: Human liver microsome stability assay; assay type: in vitro ADME; conditions: both sexes, human, microsomes, pH 7.4
Readout type: half-life at 0.5 μM (min)

Solved entries (count: 7):
Compound | Measurement units | half-life at 0.5 μM
C=C(C)c1cc2c(-c3cc(S(C)(=O)=O)ccc3Oc3ccc(F)cc3F)cn(C)c(=O)c2[nH]1 | min | 16
Cn1nc(-c2cc(NS(C)(=O)=O)ccc2Oc2ccc(F)cc2F)c2cc[nH]c2c1=O | min | 89
Cn1cc(-c2cc(S(=O)(=O)N3CCC(O)CC3)ccc2OCC2CC2)c2cc[nH]c2c1=O | min | 23
Cn1cc(-c2cc(C(=O)NCc3ccncc3)ccc2Oc2ccc(F)cc2F)c2cc[nH]c2c1=O | min | 21
CCS(=O)(=O)c1ccc(N2CCCC2)c(-c2cn(C)c(=O)c3[nH]ccc23)c1 | min | 29.9
Cn1cc(-c2cc(-c3cccc(F)c3)ccc2OCC2CC2)c2cc[nH]c2c1=O | min | 34
Cn1cc(-c2cc(S(C)(=O)=O)ccc2OCC2(C)CC2)c2cc[nH]c2c1=O | min | 33

I. Cn1cc(-c2cc(S(N)(=O)=O)cnc2NC2CCCCC2)c2cc[nH]c2c1=O
II. Cn1cc(-c2ccccc2Oc2ccccc2)c2cc[nH]c2c1=O
III. Cn1cc(-c2cc(S(C)(=O)=O)cnc2Oc2ccc(F)cc2F)c2cc[nH]c2c1=O
IV. Cn1cc(-c2cc(C(=O)NCC3CCCO3)ccc2Oc2ccccc2)c2cc[nH]c2c1=O (centres unmarked)
V. CCN(CC)S(=O)(=O)c1cnc(OCC2CC2)c(-c2cn(C)c(=O)c3[nH]ccc23)c1
Please rank these compounds by half-life at 0.5 μM in descending order. Answer with the labels in sequence, matching the requested order.
III, IV, I, II, V

---

molecular target: human BRD4 first bromodomain (BDI_K57-E168) (Homo sapiens (Human), UniProt O60885); experiment: TR-FRET bromodomain binding assay, BRD4 first bromodomain
Readout type: Ki (nM)

Solved entries (count: 2):
Compound | Tested on | Ki [nM]
CCS(=O)(=O)Nc1ccc(OCC(C)(C)C)c(-c2cn(C)c(=O)c3[nH]ccc23)c1 | human BRD4 first bromodomain (BDI_K57-E168) (Homo sapiens (Human), UniProt O60885) | 13.6
Cn1cc(-c2cc(S(C)(=O)=O)ccc2Oc2ccccc2Cl)c2cc[nH]c2c1=O | human BRD4 first bromodomain (BDI_K57-E168) (Homo sapiens (Human), UniProt O60885) | 24.6

A. CCS(=O)(=O)Cc1ccc(Oc2ccc(F)cc2F)c(-c2cn(C)c(=O)c3[nH]ccc23)c1
B. Cn1cc(-c2cc(S(=O)(=O)N3CCCC3)ccc2Oc2ccc(F)cc2F)c2cc[nH]c2c1=O
I'm curious whether A or B has the smaller Ki number. Which is it? Indicate your choice by writing its label.
A
(A: 14.2 nM, B: 80.1 nM)

I. Cn1cc(-c2cc(S(C)(=O)=O)ccc2OC2CCCC2)c2cc[nH]c2c1=O
II. COc1cc(CNC(=O)c2ccc(Oc3ccc(F)cc3F)c(-c3cn(C)c(=O)c4[nH]ccc34)c2)cc(OC)c1OC
III. CC(=O)Nc1ccc(Oc2ccccc2)c(-c2cn(C)c(=O)c3[nH]ccc23)c1
IV. CC(COC(C)(C)C)Oc1ccc(S(C)(=O)=O)cc1-c1cn(C)c(=O)c2[nH]ccc12 (stereo not shown)
Number of compounds to sort: 4. Sort criterion: Ki, ascending. Answer with the labels in sequence, matching the requested order.
I, III, IV, II
(I: 1.8 nM, III: 5.3 nM, IV: 34.3 nM, II: 183 nM)
